The measurements presented in this section are drawn from paper PMC7688529.

Assay type: in vivo, human
condition_description: human, plasma, oral, AUC0‐t, Group 1; Treatment B free combination (US‐sourced tadalafil); geometric mean (95% CI)
observed_property: AUC (ng·h/mL)
Give bare numbers, in ng·h/mL.

[in] For CCCNS(=O)(=O)Nc1ncnc(OCCOc2ncc(Br)cn2)c1-c1ccc(Br)cc1 , write its AUC.
[out] 4400

---

Assay type: in vivo, human
condition_description: human, plasma, oral, Cmax, Group 1; Treatment A FDC‐1 (macitentan/tadalafil 10 mg/40 mg), single dose, fasted, healthy subjects; geometric mean (95% CI)
observed_property: Cmax (ng/mL)
Answers are plain numbers, in ng/mL.

The examples below pair each entry with its known result.
smiles_code	Cmax [ng/mL]
CCCNS(=O)(=O)Nc1ncnc(OCCOc2ncc(Br)cn2)c1-c1ccc(Br)cc1	169
NS(=O)(=O)Nc1ncnc(OCCOc2ncc(Br)cn2)c1-c1ccc(Br)cc1	158

// next item, Cmax requested
[in] # return recorded Cmax for entry CN1CC(=O)N2[C@H](c3ccc4c(c3)OCO4)c3[nH]c4ccccc4c3C[C@@H]2C1=O
[out] 385
